Tested on: HIV-1 wild-type (WT) and a panel of NNRTI-resistant strains
PROTOCOL_DETAILS: Anti-HIV activity in MT-4 cells (MTT method), WT and panel of NNRTI-resistant strains
Format: cell-based
EXPERIMENTAL_PARAMETERS: Human immunodeficiency virus 1, MT4, read-out: EC50 values against HIV-1 WT and a panel of NNRTI-resistant strains, range over strains, MT-4 cells
OBSERVED_PROPERTY: EC50

GET /values?readout=EC50&item= Cc1cc(C#N)cc(C)c1Oc1nc(Nc2ccc(NC(=O)C3CCCN3)cc2)nc2ccsc12 (stereo not shown) [5k]
0.042 to 7.53 µM
